System: HEK293 cells
Type: cell-based, human
Details: luminescence from secreted Gluc in supernatant 24 hours after transfection of HEK293 cells; circular RNA encoding Gluc with the named IRES (UTR truncated to 675 nt)
property: Expression
Give bare numbers.

Looking up Rodent pegivirus (nucleic acid, listed as Pegivirus sp.) DNA: GGACTTCGGTCCCCCTGTTACTCTGCGAGCCACCGCAGAGCCAGGGTTGGTACGCCCGAGGTGTTAGACCCCGGCCGAAAGCTCCTAACCATGGGGTTAGTAGGACGTGGTAAATGCCACTGAGGGGTTGGAGAGCTGGTAGAGCGAGTAAGTCGGCGTAAGGCCCGAGTACGGGCCTCCCAGCCCGGGTCAGCCTAAACCTGGCTGTGATACCCGGTGCATGGAGGGCGTGTCCCAACGCTCGATCGCTGTAGGGTGGGTCCCTGCAGTTGGGTGTGGCTACCCTGCTCGTACTGCTTGATAGAGTCCCGGCGGACGGACCAGCTCTCGTCAGTCCGTGGAGTTGCAC , I see its Expression listed as 1.79E+05
